- assay-protocol: ATG_AP_1_CIS: Attagene CIS-FACTORIAL HepG2 Assay for human Activator Protein 1 (AP-1) (AID 2282931)
- experimental-parameters: HepG2 Attagene cis-factorial AP-1 reporter mRNA; actives raise or lower the signal
The source made the active and inactive calls. How the source made its calls: active means hit-call score of the fitted dose curve at least 0.9, where 1 is the maximum; inactive means score below 0.9.
Outcome codes: active, inactive

| compound | class-name |
| --- | --- |
| C=CCCCCCCCCO | inactive |
| CC1=CC(C)C(C=O)CC1 (centres undefined) | inactive |
| Cc1c[nH]c(=O)[nH]c1=O | inactive |
| CC1(C)C(=O)N(CO)C(=O)N1CO | inactive |
| Cc1c(O)cccc1O | inactive |
| CCNc1nc(NC(C)(C)C)nc(OC)n1 | inactive |
| CCCCCCCCCCCCCC(=O)OC(C)C | inactive |
| C=CC(=O)NC(C)(C)C | inactive |
| Nc1cccc(N)n1 | inactive |
| CC1(C)CC(O)CC(C)(C)N1[O] | active |
| CC1OC(=O)C(C)OC1=O (centres undefined) | inactive |
| CCCCCCCCCCCCCCCCCCOS(=O)(=O)O | active |
| C=C[C@@]1(C)CC(=O)[C@]2(O)[C@@]3(C)[C@@H](O)CCC(C)(C)[C@@H]3[C@H](O)[C@H](OC(C)=O)[C@@]2(C)O1 | inactive |
| Cc1ccc([N+](=O)[O-])cc1N | inactive |
